- Test system: CAKI-1 renal
- assay_method_text: NCI tumour cell line growth inhibition, 48 h
observation_type: TGI

Please indicate TGI recorded for COc1ccc(S(=O)(=O)N2CCCCC2)cc1NC(=O)c1[nH]c(C)c2c1CCCCC2=O
56.7 µM

Provide TGI value for the following compound: CC1=CC(=O)c2cccc(O)c2C1=O
3.29 µM

Determine from records and report TGI for O=c1c2cc(-c3ccccc3)sc2nc2sc(-c3ccccc3)nn12
> 100 µM

Indicate its recorded TGI; the compound in question is O=C1CC(CC(O)C(O)CO)CC(=O)N1 (stereo unspecified)
> 100 µM

Answer with the recorded TGI of COc1cccc(NC(=O)c2c(SC)n[nH]c2N)c1 only.
> 100 µM

Please report TGI for the following compound: O=[N+]([O-])/C=C/c1cccc(F)c1
29.9 µM

Respond only with TGI recorded for CNNC1=NS(=O)(=O)c2cc(C(=O)OC)c(Cl)cc2S1
> 10 µM

Specify reported TGI for the compound shown: O=C(Nc1ccccc1)N1CC(CN2CCN(c3ccccc3)CC2)OC1=O (stereo unspecified)
> 100 µM

Provide one value: measured TGI of O=c1oc2ccccc2c(O)c1C(c1ccc([N+](=O)[O-])cc1)c1c(O)c2ccccc2oc1=O
> 100 µM

Give the measured TGI for CCCN(CCC)C(=O)Cc1c2n(c3ccccc13)CCCc1ccccc1-2
28.4 µM

Output measured TGI for this item: OC(CCN1CCN(CCOC(c2ccc(F)cc2)c2ccc(F)cc2)CC1)c1ccccc1 (stereo unspecified)
33.6 µM

Output measured TGI for this item: CCC1(c2ccncc2)CCC(=O)NC1=O (stereo unspecified)
> 100 µM

Name the recorded TGI of the compound listed here: COc1cc(C)c(N(C)C(=O)CN(C)C)cc1Nc1nc(Nc2cccc(F)c2C(N)=O)c2cc[nH]c2n1
> 25 µM

Give reported TGI value for Cc1nnc2sc(-c3ccc(N)cc3)nn12
> 100 µM

Read the entry C/C(=C\c1ccccc1)C(O)S(=O)(=O)O (stereo unspecified) and write its reported TGI.
> 100 µM

Check the records and state TGI for COc1ccc(C(F)(F)F)cc1NC(=O)O/N=C(/Cl)C(C)C
3.18 µM

Please supply the value of reported TGI for the item C/C(=N\O)C(CN(C)C)C(c1ccccc1)c1c(O)c2ccccc2oc1=O (stereo unspecified)
> 100 µM

For CSc1ccc2c(cc1=O)C(NC(=O)c1cc(O)c(OC(=O)O)c(O)c1)CCc1cc(O)c(O)c(O)c1-2 (stereo unspecified) , write its TGI.
41.9 µM

# return recorded TGI for input COC(=O)C1=C(C(=O)OC)C2(/N=C(\Nc3ccccc3)c3ccccc3)N(c3ccc(OC)cc3)CC(c3ccccc3)N2O1 (stereo unspecified)
> 100 µM

For the compound CC(C)(C)c1ccc(NC(=O)c2cc(=O)c3ccccc3[nH]2)c(C(C)(C)C)c1O , give its reported TGI.
19.2 µM

Supply measured TGI of NC(N)=NS(=O)(=O)c1ccc(NC(=O)c2ccc(Cl)c3c(Nc4ccc(S(=O)(=O)N=C(N)N)cc4)c4ccccc4nc23)cc1 in your reply.
> 100 µM

----------
Assign TGI to each entry below.
- Test system: NCI-H23 lung
- assay_method_text: NCI tumour cell line growth inhibition, 48 h

Specify TGI for CC(=O)N1C(=O)C(=O)c2cc(Cl)ccc21 and stop.
> 100 µM

Output TGI of CCOC(=O)NC(=O)c1cn(-c2ccc(CCOC(=O)CCCCCCCCC(=O)OCCc3ccc(-n4cc(C(=O)NC(=O)OCC)c(=O)[nH]c4=O)cc3)cc2)c(=O)[nH]c1=O
> 100 µM

Specify reported TGI for the molecule shown: CC(C)(C)OC(=O)N(CCCn1c2c(c3ccccc3c1=O)C(=O)c1ccccc1-2)CCN(CCCn1c2c(c3ccccc3c1=O)C(=O)c1ccccc1-2)C(=O)OC(C)(C)C
> 50 µM

Dear colleague, please send me the reported TGI for O=[N+]([O-])/C(Cl)=C(\Sc1ccccc1)C(Cl)=C(Cl)Cl when you can.
1.87 µM

Name the recorded TGI of the molecule listed here: CN(C)c1ccc2c(SCC(=O)OCC(=O)[C@@]3(O)CC[C@H]4[C@@H]5CCC6=CC(=O)C=C[C@]6(C)[C@H]5C(=O)C[C@@]43C)c3ccc(N(C)C)cc3nc2c1
64.9 µM

Supply measured TGI of COc1cc(C(CN)N(C)C)cc(OC)c1OC (stereo not drawn) in your reply.
> 100 µM

Output TGI of CCCCCCCCCCSS(=O)(=O)c1ccc(C)cc1
35.4 µM

Please look at this molecule and report its TGI: O=C(O)c1cc2c3c(c1)[C@H]1C=CC[C@H]1CN3CC1CC=CC21 (stereo partly drawn)
> 100 µM

----------
- Tested on: HT29 colon
- assay_method_text: NCI tumour cell line growth inhibition, 48 h
observation_type: TGI

Given CCOC(=O)C1=C(C)N2CCCOC2(C)C(C(=O)OC)C1c1cccc([N+](=O)[O-])c1 (stereo unspecified) , respond with its TGI.
> 100 µM

Complete the entry with TGI for Cc1ccc2c(c1)C(=O)C1(C2)Cc2ccc(C)cc2C1=O
> 100 µM

Identify measured TGI associated with COc1ccc(OC)c(-c2cn3nc(-c4c[nH]c5ccc(Br)cc45)sc3n2)c1
4.75 µM

Please report TGI for the following compound: COc1ncnc2c1ncn2C/C(Br)=C(\Br)CCl
3.71 µM

Determine from records and report TGI for c1ccc2c(c1)[Se]c1ccccc1[Se]2
> 100 µM

Kindly indicate its recorded TGI. Item: NC(CCc1nc(-c2ccccc2)cs1)C(=O)O (stereo unspecified)
> 100 µM

Kindly indicate its recorded TGI. Item: CC(=O)NC1C(OCc2ccccc2)OC(CO)C(O)C1OCC(=O)NC(C)C(=O)NC(CCC(=O)OCCNC(=O)c1cccc2cc3ccccc3nc12)C(N)=O (stereo unspecified)
> 100 µM

Give TGI for Cc1c(Cl)c(S(N)(=O)=O)cc(S(N)(=O)=O)c1NC(=O)c1ccc(Cl)cc1
> 100 µM

Give the reported TGI for this compound. O=C1C=CC(=O)c2c(O)c(Nc3ccc(OC(F)(F)F)cc3)c(Cl)c(O)c21
1.28 µM

Supply TGI value. Item: O=C(O)C1(C(=O)O)CCN(S(=O)(=O)c2ccccc2)CC1
> 100 µM

Read off the recorded TGI for CCOC(=O)C1C(=O)CC(C)(O)C(C(=O)OCC)C1c1ccc(O)c(OC)c1 (stereo unspecified)
> 100 µM

Specify reported TGI for the compound shown: COC(=O)c1cc(Cl)ccc1NC(=O)C1CCCCC1
> 100 µM

Indicate the recorded TGI value for this compound: COc1cc(C(CN)N(C)C)cc(OC)c1OC (stereo unspecified)
> 100 µM

Identify measured TGI corresponding to S=C(NNC1=NCCCCN1)Nc1ccccc1
> 100 µM

Tell me TGI reported for O=C1c2ccccc2N2OC3C4CCC(C4)C3C12c1ccccc1 (stereo unspecified)
> 100 µM

Give reported TGI value for O=C(C1=CCC2(CC1)OCCO2)N(Cc1ccccc1)c1ccccc1I
36 µM

Tell me measured TGI for CNNC1=NS(=O)(=O)c2cc(C(=O)OC)c(Cl)cc2S1 please.
> 10 µM

Annotate the compound CN1CCN(c2ccc3nc(-c4ccc5nc(-c6ccc(C(F)(F)F)cc6)[nH]c5c4)[nH]c3c2)CC1 with its measured TGI.
3.13 µM

Specify reported TGI for the compound shown: COc1cc(C)c(N(C)C(=O)CN(C)C)cc1Nc1nc(Nc2cccc(F)c2C(N)=O)c2cc[nH]c2n1
> 25 µM

Given the compound O=C1c2ccccc2C(=O)c2[nH]c(=O)c(/C=N/Nc3ccc([N+](=O)[O-])cc3)nc21 , write its reported TGI.
> 21.5 µM

Write down TGI measured for item COc1ccc(-c2c(N)n(-c3cc(OC)cc(OC)c3)c(=O)c3cc([N+](=O)[O-])ccc23)cc1
> 100 µM

State, in one line, measured TGI of COc1cccc(NC(=O)c2c(SC)n[nH]c2N)c1
> 100 µM

Hello, please tell me recorded TGI for this one: S=C(S)NCCCn1ccnc1
> 100 µM

# return recorded TGI for input CCOC(=O)c1c(N2CCOCC2)[nH]c(=O)c(C(c2ccc(N(C)C)cc2)c2c(O)c(C(=O)OCC)c(N3CCOCC3)[nH]c2=O)c1O
> 100 µM

Please supply the value of reported TGI for the item N#CC(C(=N/NC(N)=S)/C(=N\NC(N)=S)C(C#N)c1ccccc1)c1ccccc1 (stereo unspecified)
> 10 µM

In one line, give reported TGI of the entry O=c1cc(-c2ccccc2)oc2cc(OCc3cn(Cc4ccc(F)cc4)nn3)cc(O)c12 .
> 100 µM

Given the compound CCOc1ccccc1N=C(NC(=O)CC)SC , write its reported TGI.
> 100 µM

Retrieve TGI measured for CC(C)c1cccc2sc(NC(=O)C(=O)CC(=O)c3ccc(F)cc3)nc12 and print it.
> 100 µM

Name the recorded TGI of the compound listed here: O=C(c1cccs1)N(C(=S)OCc1ccccn1)c1ccccc1
> 100 µM

// Input: c1ccc(CN2CCC3(CC2)ONC2=NCCN23)cc1 . Output its TGI only.
> 100 µM

Return the recorded TGI value; entry: COc1ccccc1OCc1nnc(SCC(=O)O)n1-c1ccccc1
> 100 µM
